Sourced from patent US8445503B2

# test_target: GST-PLK3 (Homo sapiens, UniProt Q9H4B4)
# Construct: purchased CarnaBio
# Sequence (Q9H4B4 whole entry): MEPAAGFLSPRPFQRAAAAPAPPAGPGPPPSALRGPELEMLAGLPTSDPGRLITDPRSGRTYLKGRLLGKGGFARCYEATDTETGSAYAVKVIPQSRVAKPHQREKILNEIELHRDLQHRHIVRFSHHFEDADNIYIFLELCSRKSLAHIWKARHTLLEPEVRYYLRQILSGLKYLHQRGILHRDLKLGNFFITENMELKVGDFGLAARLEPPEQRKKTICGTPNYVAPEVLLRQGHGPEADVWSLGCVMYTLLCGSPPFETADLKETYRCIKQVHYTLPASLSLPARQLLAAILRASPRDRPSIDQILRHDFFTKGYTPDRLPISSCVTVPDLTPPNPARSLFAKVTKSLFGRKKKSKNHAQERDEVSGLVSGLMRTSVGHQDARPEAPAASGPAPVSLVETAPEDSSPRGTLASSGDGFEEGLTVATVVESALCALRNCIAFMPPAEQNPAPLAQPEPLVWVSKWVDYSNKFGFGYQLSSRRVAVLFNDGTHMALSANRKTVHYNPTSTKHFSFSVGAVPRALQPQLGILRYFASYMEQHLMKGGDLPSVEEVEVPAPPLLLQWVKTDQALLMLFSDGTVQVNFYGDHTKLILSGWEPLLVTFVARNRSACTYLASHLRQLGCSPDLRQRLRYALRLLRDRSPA
# assay_info: PLK TR-FRET peptide assay, PLK3
# Type: biochemical
# condition_notes: PLK TR-FRET peptide assay, GST-PLK3; read-out: Plk3 IC50
Listed next: entries and their corresponding IC50.

CC[C@]12COCCN1c1nc(-c3snnc3-c3ccc(F)cn3)ncc1N(C)C2=O    > 50 µM
CC[C@@H]1C(=O)N(C)c2cnc(-n3ccnc3-c3ccncc3)nc2N1C1CCC1    10 to 50 µM

Now turn to the next compound.
Incoming: Returns the measured IC50 for the input compound. Input: `CC[C@@H]1C(=O)N(C)c2cnc(-n3ccnc3-c3cccnn3)nc2N1C(C)C`
Outgoing: > 50 µM

----------
# test_target: GST-PLK2 (Homo sapiens)
# Construct: purchased CarnaBio
# assay_info: PLK TR-FRET peptide assay, PLK2
# Assay type: biochemical
# condition_notes: PLK TR-FRET peptide assay, GST-PLK2; read-out: Plk2 IC50
Listed next: entries and their corresponding IC50.

Some solved cases for reference:
CC[C@@H]1C(=O)N(C)c2cnc(-n3ccnc3-c3ccc(S(C)(=O)=O)cc3)nc2N1C1CCCC1    < 1000 nM
CC[C@@H]1C(=O)N(C)c2cnc(-n3ncnc3-c3ccccc3)nc2N1C1CCCC1    < 1000 nM
CC[C@@H]1C(=O)N(C)c2cnc(-c3cncnc3-c3ccccc3)nc2N1C1CCCC1    < 1000 nM
CC[C@@H]1C(=O)N(C)c2cnc(-n3ccnc3Br)nc2N1C1CCCC1    < 1000 nM
CC[C@@H]1C(=O)N(C)c2cnc(-n3ccnc3-c3cnccn3)nc2N1C1CCOCC1    < 1000 nM

Incoming: Returns the measured IC50 for the input compound. Input: `CC[C@@H]1C(=O)N(C)c2cnc(-n3ccnc3-c3ncccn3)nc2N1C1CCC1`
Outgoing: < 1000 nM

Incoming: Try this compound next: `CC[C@@H]1C(=O)N(C)c2cnc(-n3ccnc3-c3ccccn3)nc2N1C(C)C`
Outgoing: < 1000 nM

Incoming: Try this compound next: `CC[C@@H]1C(=O)N(C)c2cnc(-c3cn[nH]c3-c3ccccc3)nc2N1C1CCCC1`
Outgoing: < 1000 nM

Incoming: Try this compound next: `CC[C@]12COCCN1c1nc(-n3ccnc3-c3ccc(F)cn3)ncc1N(C)C2=O`
Outgoing: > 50000 nM

Incoming: Try this compound next: `CC[C@@H]1C(=O)N(C)c2cnc(-c3ccncc3-c3ccccc3)nc2N1C(C)C`
Outgoing: < 1000 nM

Incoming: Try this compound next: `CC[C@@H]1C(=O)N(C)c2cnc(-n3ccnc3-c3cncnc3)nc2N1C(C)C`
Outgoing: < 1000 nM

Incoming: Try this compound next: `CC[C@]12COCCN1c1nc(-c3ccncc3-c3ccccc3)ncc1N(C)C2=O`
Outgoing: > 50000 nM

Incoming: Try this compound next: `CC[C@@H]1C(=O)N(C)c2cnc(-c3ccncc3)nc2N1C1CCCC1`
Outgoing: < 1000 nM

Incoming: Try this compound next: `CC[C@@]12COCCN1c1nc(-c3cnoc3-c3ccccc3)ncc1N(C)C2=O`
Outgoing: < 1000 nM

----------
# test_target: GST-PLK3 (Homo sapiens, UniProt Q9H4B4)
# Construct: purchased CarnaBio
# assay_info: PLK TR-FRET peptide assay, PLK3
# Format: biochemical
# condition_notes: read-out: Plk3 IC50
value_kind: IC50

Incoming: Returns the measured IC50 for the input molecule. Input: `CC[C@@H]1C(=O)N(C)c2cnc(N3CCN=C3c3ccccc3)nc2N1C(C)C`
Outgoing: 1 to 10 µM

----------
# test_target: GST-PLK2 (Homo sapiens, UniProt Q9NYY3)
# Construct: purchased CarnaBio
# Sequence (Q9NYY3 whole entry): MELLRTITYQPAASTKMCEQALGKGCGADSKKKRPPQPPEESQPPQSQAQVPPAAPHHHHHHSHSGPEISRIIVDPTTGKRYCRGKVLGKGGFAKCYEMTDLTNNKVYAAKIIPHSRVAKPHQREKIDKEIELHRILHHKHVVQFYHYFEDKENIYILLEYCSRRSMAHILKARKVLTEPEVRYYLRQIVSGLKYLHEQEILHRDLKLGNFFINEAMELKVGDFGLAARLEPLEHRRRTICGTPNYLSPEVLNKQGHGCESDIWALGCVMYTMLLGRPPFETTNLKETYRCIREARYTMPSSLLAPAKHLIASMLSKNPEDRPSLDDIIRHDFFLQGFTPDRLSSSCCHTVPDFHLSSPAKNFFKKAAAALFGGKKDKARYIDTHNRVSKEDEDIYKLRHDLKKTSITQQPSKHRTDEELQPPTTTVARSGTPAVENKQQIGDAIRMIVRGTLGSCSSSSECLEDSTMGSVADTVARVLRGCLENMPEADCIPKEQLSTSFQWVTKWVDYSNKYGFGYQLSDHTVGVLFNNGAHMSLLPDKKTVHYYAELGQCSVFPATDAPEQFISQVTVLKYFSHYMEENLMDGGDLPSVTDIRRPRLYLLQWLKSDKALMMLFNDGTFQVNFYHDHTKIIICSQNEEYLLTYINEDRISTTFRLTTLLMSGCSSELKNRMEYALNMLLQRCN
# assay_info: PLK TR-FRET peptide assay, PLK2
# Format: biochemical
# condition_notes: PLK TR-FRET peptide assay, GST-PLK2; read-out: Plk2 IC50
Listed next: entries and their corresponding IC50.

CCC1C(=O)Nc2cnc(-n3ccnc3-c3ccccc3)nc2N1NC(=O)OC(C)(C)C (centres unmarked) [Example 274]    > 50000 nM
CC[C@@]12COCCN1c1nc(-n3ccnc3-c3ccccc3)ncc1N(C)C2=O (single isomer, unassigned) [Example 314]    < 1000 nM
CC[C@@H]1C(=O)N(C)c2cnc(-n3cnc(CCN)c3)nc2N1C1CCCC1 [Example 62]    < 1000 nM
CC[C@]12COCCN1c1nc(-c3cccnc3-c3ccccc3)ncc1N(C)C2=O [Example 404]    > 50000 nM
CC[C@@H]1C(=O)N(C)c2cnc(-n3cnc(C(=O)OC)c3)nc2N1C1CCCC1 [Example 38]    1000 to 10000 nM
CC[C@@]12COCCN1c1nc(-c3snnc3-c3ccc(F)cc3F)ncc1N(C)C2=O [Example 397]    < 1000 nM
CC[C@@]12CCCN1c1nc(-n3ccnc3-c3ccccn3)ncc1N(C)C2=O [Example 145]    1000 to 10000 nM
CC[C@@]12CCCN1c1nc(-n3ccnc3-c3cnccn3)ncc1N(C)C2=O [Example 144]    1000 to 10000 nM
CC[C@@H]1CC[C@@]2(CC)C(=O)N(C)c3cnc(-n4ccnc4-c4ccccc4)nc3N12 [Example 309]    < 1000 nM
CC[C@@H]1C(=O)N(C)c2cnc(-c3scnc3-c3ccc(F)cc3)nc2N1C(C)C [Example 319]    < 1000 nM

Incoming: Returns the measured IC50 for the input compound. Input: CC[C@@]12COCCN1c1nc(-c3snnc3-c3ccc(F)cn3)ncc1N(C)C2=O [Example 415]
Outgoing: 1000 to 10000 nM

Incoming: Try this compound next: CC[C@@H]1C(=O)N(C)c2cnc(-n3cc(C(=O)O)cn3)nc2N1C1CCCC1 [Example 44]
Outgoing: 1000 to 10000 nM

Incoming: Try this compound next: CC[C@@H]1C(=O)N(C)c2cnc(-c3sc(N)nc3-c3ccc(F)cc3)nc2N1C(C)C [Example 318]
Outgoing: < 1000 nM

Incoming: Try this compound next: CC[C@H]1C(=O)N(C)c2cnc(-n3ccnc3-c3ccccc3)nc2N1c1cnn(C)c1 [Example 410]
Outgoing: > 50000 nM

Incoming: Try this compound next: CC[C@@]12CCCN1c1nc(-n3ccnc3-c3ccncc3)ncc1N(C)C2=O [Example 101]
Outgoing: < 1000 nM

Incoming: Try this compound next: CC[C@]12COCCN1c1nc(-c3snnc3-c3ccc(F)cn3)ncc1N(C)C2=O [Example 416]
Outgoing: 10000 to 50000 nM

Incoming: Try this compound next: CC[C@@H]1C(=O)N(C)c2cnc(-c3cn(C)nc3-c3nccs3)nc2N1c1cnn(C)c1 [Example 417]
Outgoing: < 1000 nM

----------
// IC50 collected for UniProtKB P53350
Sequence (P53350 whole entry): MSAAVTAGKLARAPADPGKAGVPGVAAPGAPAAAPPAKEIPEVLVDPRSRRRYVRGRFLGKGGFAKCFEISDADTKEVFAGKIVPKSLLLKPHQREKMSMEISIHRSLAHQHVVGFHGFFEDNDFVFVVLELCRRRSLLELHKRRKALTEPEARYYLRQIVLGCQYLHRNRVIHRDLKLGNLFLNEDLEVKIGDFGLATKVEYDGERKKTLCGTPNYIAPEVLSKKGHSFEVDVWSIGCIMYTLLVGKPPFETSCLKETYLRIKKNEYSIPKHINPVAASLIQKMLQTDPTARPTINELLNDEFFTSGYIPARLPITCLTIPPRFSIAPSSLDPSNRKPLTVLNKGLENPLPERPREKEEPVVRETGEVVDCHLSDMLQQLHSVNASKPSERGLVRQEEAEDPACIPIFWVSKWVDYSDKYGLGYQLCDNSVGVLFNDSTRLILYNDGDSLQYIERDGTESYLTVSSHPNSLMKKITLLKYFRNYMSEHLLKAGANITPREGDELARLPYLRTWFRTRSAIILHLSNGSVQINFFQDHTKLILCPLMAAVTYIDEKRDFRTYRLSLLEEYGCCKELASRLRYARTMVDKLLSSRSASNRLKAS

Some solved cases for reference:
CC[C@@]12COCCN1c1nc(-n3ccnc3-c3nccs3)ncc1N(C)C2=O    > 50 µM
CC[C@@H]1C(=O)N(C)c2cnc(-c3ccncc3)nc2N1C1CCCC1    < 1 µM
CC[C@@H]1C(=O)N(C)c2cnc(-n3ccc(=N)cc3)nc2N1C1CCCC1    10 to 50 µM
CC[C@@H]1C(=O)N(C)c2cnc(-n3ccnc3)nc2N1C1CCOC1 (single isomer, unassigned)    1 to 10 µM
CC[C@@H]1C(=O)N(C)c2cnc(-n3ccnc3-c3cncnc3)nc2N1C1CCC1    1 to 10 µM
CC[C@@H]1C(=O)N(C)c2cnc(-n3ccnc3-c3ccncc3)nc2N1C1CCOCC1    1 to 10 µM
CC[C@@H]1C(=O)N(C)c2cnc(-n3ccnc3-c3ccccc3)nc2N1c1cnn(C)c1    < 1 µM
CC[C@@H]1C(=O)N(C)c2cnc(-n3cc(C(=O)NC)cn3)nc2N1C1CCCC1    < 1 µM
CC[C@]12COCCN1c1nc(-c3cnoc3-c3ccccc3)ncc1N(C)C2=O    > 50 µM
CC[C@@H]1C(=O)N(C)c2cnc(-n3cc(C(=O)N4CCOCC4)cn3)nc2N1C1CCCC1    1 to 10 µM

Incoming: Returns the measured IC50 for the input compound. Input: `CC[C@@H]1C(=O)N(C)c2cnc(-n3ccnc3)nc2N1C1CCC1`
Outgoing: 1 to 10 µM

Incoming: Try this compound next: `CC[C@@H]1C(=O)N(C)c2cnc(-n3ncnc3-c3ccn[nH]3)nc2N1C(C)C`
Outgoing: < 1 µM

Incoming: Try this compound next: `CC[C@@H]1C(=O)N(C)c2cnc(-c3nccnc3-c3ccccc3)nc2N1C1CCCC1`
Outgoing: < 1 µM

Incoming: Try this compound next: CCC1C(=O)N(C)c2cnc(-n3ccnc3-c3ccc(F)cc3)nc2N1c1cnn(COCC[Si](C)(C)C)c1 (stereo not drawn)
Outgoing: 10 to 50 µM

Incoming: Try this compound next: `CC[C@@H]1C(=O)N(C)c2cnc(-c3cc[n+]([O-])cc3)nc2N1C1CCCC1`
Outgoing: 1 to 10 µM
